# TEST SUMMARY: qHTS of alpha-syn Inhibitors; further: nearly all actives have a fitted effect of over 65% in size
# TEST SETTINGS: Yeast expressing alpha-synuclein, BacTiter-Glo, 24 h; growth rescue; series mostly up to 46.1 µM
Among all 370,000 compounds or so, about 500 (0.14%) were called active. About 2% were inconclusive and are not listed. The sample holds actives, similar compounds and a random draw of the others, so the mix is not that of the screen.
MEASUREMENT TYPE: outcome

> print(dat)
                                   molecule  assay.value
1      N#Cc1ccc[n+](CC(=O)c2ccc(O)c(O)c2)c1     inactive
2  Oc1ccc(Cl)cc1C1C=C(c2ccc3c(c2)OCO3)NC(c2ccc(F)c(Br)c2)N1 (stereo not given)     inactive
3  Cc1cccc(NC(=O)COC(=O)c2ccccc2OCc2cccc(Br)c2)c1     inactive
4  CCOC(=O)c1ccc(NC2=CC(c3ccc(OCC)cc3)N(c3ccc(C(=O)OCC)cc3)C2=O)cc1 (stereo not given)     inactive
5  CCOC(=O)Cn1c(=O)n(C2CCCCC2)c2nc(-c3cccc(OC)c3)nc(C(N)=O)c21     inactive

====

# TEST SUMMARY: qHTS of alpha-syn Inhibitors; further: nearly all actives have a fitted effect of over 65% in size
# TEST SETTINGS: Yeast expressing alpha-synuclein, BacTiter-Glo, 24 h; growth rescue; series mostly up to 46.1 µM
About 500 (0.14%) of roughly 370,000 compounds were called active. Inconclusive results (about 2%) are left out. Calls come from the whole dose curve; as a rule, active = well fitted activation curve with a large enough effect; inconclusive = small, poorly fitted or top-dose-only effect; inactive = no such curve, though single readings can be large or run the other way. This is one part of a sample in which actives are shown more often than they occur.
Possible outcomes: 1 (active), 0 (inactive)

> print(dat)
                                    compound  discrete.label
 1  O=C(COC(=O)CSc1nnc(-c2ccc(Cl)cc2)o1)Nc1cc(Cl)cc(Cl)c1               0
 2              S=c1[nH]c(=S)c2n[nH]nc2[nH]1               0
 3    CCC1(C)CC(=O)NC1=O (centres undefined)               0
 4  O=C(c1cnn2c1NC(=C1CC1)C=C2C(F)F)N1CCc2ccccc2C1               0
 5  O=[N+]([O-])c1ccc(S(=O)(=O)N2CCN(c3nc(-c4ccccc4)nc4ccccc34)CC2)cc1               0
 6  COc1ccc(-c2c(-c3ccc(OC)cc3O)nc(C)nc2C(F)(F)F)cc1               0
 7  CC(C)(C)C1CCC(NC(=O)c2cnn3c2NC(=C2CC2)C=C3C(F)F)CC1 (centres undefined)               0
 8  COc1ccc(N2CCN(S(=O)(=O)c3ccc(-c4coc(C)n4)cc3)CC2)cc1               0
 9  Cc1ccc(NC(=O)NCC(c2cccnc2)N2CCOCC2)cc1 (centres undefined)               1
10   O=C(COc1ccccc1)Nc1nonc1NC(=O)COc1ccccc1               0
11      OC(CBr)CN1CCCCC1 (centres undefined)               0
12  OC(Cc1ccc2ccccc2n1)c1ccc(Cl)c(Cl)c1 (centres undefined)               0
13      C=C1C=C(C)n2ncc(C(=O)Nc3ccccc3O)c2N1               0
14  Cc1ccc(C)c(NC(=S)NCC(c2cccnc2)N2CCOCC2)c1 (centres undefined)               0
15                  CCN(CC)c1nc(C#N)nc(OC)n1               0
16  COc1ccc(OC)c(NC(=O)C2CCCN(S(=O)(=O)c3ccc4c(c3)CCCC(=O)N4)C2)c1 (centres undefined)               0
17  C(=Nc1ccc(/C=C/c2ccnc3ccccc23)cc1)Nc1ccc(/C=C/c2ccnc3ccccc23)cc1               0
18  Oc1ccccc1-c1nc2ccc(Cl)cn2c1Nc1ccc2c(c1)OCCO2               0
19           CC(C)c1cccc(C(C)C)c1Nc1cn[nH]c1               1
20   CCOc1cc(C(=O)Nc2nnc3n2CCS3)cc(OCC)c1OCC               0
21  OC[C@@H]1O[C@H](n2cnc3c(SCc4ccccc4)ncnc32)[C@H](O)[C@H]1O               0
22  Oc1ccc(Cl)cc1C1C=C(c2ccc3c(c2)OCO3)NC(c2c(F)cccc2Cl)N1 (centres undefined)               0
23  CCc1ccccc1NC(=O)c1cnn(-c2ccc(F)cc2)c1C1CCNCC1               0
24  COc1ccc(CN2CCc3nc(Nc4ccccc4)ncc3C2)c(OC)c1OC               0
25  CN(C)C1=C2C=CC=CC2/C(=C2/C=Cc3ccccc32)C=C1 (centres undefined)               0
26  Cc1ccc(CCNC(=O)c2ccc(CNS(=O)(=O)c3ccc(C)cc3)cc2)cc1               0
27     COc1ccc(Oc2cn[nH]c2-c2ccc(OC)cc2O)cc1               1
28  CC(=O)c1ccc[n+](C(C)CCC(C)[n+]2cccc(C(C)=O)c2)c1 (centres undefined)               0
29  CCCCCCC1(C)NC(c2ccc3c(c2)OCO3)=CC(c2ccccc2O)N1 (centres undefined)               0
30  CCC(C)N(c1ccc(/C=C/c2ccnc3ccccc23)cc1)C(C)CC (centres undefined)               0
31  COc1ccc(-c2[nH]ncc2CN(C)Cc2c(C)n[nH]c2C)c(OC)c1               0
32  O=C1COc2ccc(-c3csc(-c4ccc(Cl)cc4)n3)cc2N1               0
33  Cc1ccc(C)c2sc(NC(=O)c3ccc(S(=O)(=O)N4CCCC4)cc3)nc12               0
34  CC1CCN(S(=O)(=O)c2ccc3c(c2)N(CC(=O)NCc2ccccc2Cl)C(=O)CO3)CC1               0
35            COc1cc2nc(Cl)nc(NC3CC3)c2cc1OC               0
36               C[N+]1(CC(=O)c2cccs2)CCOCC1               0
37  Cc1ccc(C(CNC(=O)Nc2ccccc2)N2CCN(C)CC2)cc1 (centres undefined)               0
38  O=C(Nc1ccccc1C(F)(F)F)c1nc(S(=O)(=O)Cc2ccccc2F)ncc1Cl               0
39  COc1cccc(C(=O)c2sc3nc(-c4ccccc4)cc(C(F)(F)F)c3c2N)c1               0
40           O=C(Nc1cccc2c1CCCC2)c1ccc(F)cc1               0
41  Cc1nn(-c2ccc(F)cc2)c(-n2cccc2)c1C(=O)N1CCN(c2ccccc2)CC1               0
42                           CC(=O)/C(C)=N/O               0
43  Cc1ccc(C)c(N2CCN(C(=O)CCc3nc(-c4cccc(C(F)(F)F)c4)no3)CC2)c1               0
44  CCOc1ccccc1CNC(=O)Nc1cn(CC(C)C)c(=O)c2ccccc12               0
